Measured values drawn from patent US20240208992A1 for this set.

# Target Entity: human F508del-CFTR (Homo sapiens, UniProt P13569, DEL508-508)
# Sequence (P13569 with tags, fused parts or gaps DEL508-508): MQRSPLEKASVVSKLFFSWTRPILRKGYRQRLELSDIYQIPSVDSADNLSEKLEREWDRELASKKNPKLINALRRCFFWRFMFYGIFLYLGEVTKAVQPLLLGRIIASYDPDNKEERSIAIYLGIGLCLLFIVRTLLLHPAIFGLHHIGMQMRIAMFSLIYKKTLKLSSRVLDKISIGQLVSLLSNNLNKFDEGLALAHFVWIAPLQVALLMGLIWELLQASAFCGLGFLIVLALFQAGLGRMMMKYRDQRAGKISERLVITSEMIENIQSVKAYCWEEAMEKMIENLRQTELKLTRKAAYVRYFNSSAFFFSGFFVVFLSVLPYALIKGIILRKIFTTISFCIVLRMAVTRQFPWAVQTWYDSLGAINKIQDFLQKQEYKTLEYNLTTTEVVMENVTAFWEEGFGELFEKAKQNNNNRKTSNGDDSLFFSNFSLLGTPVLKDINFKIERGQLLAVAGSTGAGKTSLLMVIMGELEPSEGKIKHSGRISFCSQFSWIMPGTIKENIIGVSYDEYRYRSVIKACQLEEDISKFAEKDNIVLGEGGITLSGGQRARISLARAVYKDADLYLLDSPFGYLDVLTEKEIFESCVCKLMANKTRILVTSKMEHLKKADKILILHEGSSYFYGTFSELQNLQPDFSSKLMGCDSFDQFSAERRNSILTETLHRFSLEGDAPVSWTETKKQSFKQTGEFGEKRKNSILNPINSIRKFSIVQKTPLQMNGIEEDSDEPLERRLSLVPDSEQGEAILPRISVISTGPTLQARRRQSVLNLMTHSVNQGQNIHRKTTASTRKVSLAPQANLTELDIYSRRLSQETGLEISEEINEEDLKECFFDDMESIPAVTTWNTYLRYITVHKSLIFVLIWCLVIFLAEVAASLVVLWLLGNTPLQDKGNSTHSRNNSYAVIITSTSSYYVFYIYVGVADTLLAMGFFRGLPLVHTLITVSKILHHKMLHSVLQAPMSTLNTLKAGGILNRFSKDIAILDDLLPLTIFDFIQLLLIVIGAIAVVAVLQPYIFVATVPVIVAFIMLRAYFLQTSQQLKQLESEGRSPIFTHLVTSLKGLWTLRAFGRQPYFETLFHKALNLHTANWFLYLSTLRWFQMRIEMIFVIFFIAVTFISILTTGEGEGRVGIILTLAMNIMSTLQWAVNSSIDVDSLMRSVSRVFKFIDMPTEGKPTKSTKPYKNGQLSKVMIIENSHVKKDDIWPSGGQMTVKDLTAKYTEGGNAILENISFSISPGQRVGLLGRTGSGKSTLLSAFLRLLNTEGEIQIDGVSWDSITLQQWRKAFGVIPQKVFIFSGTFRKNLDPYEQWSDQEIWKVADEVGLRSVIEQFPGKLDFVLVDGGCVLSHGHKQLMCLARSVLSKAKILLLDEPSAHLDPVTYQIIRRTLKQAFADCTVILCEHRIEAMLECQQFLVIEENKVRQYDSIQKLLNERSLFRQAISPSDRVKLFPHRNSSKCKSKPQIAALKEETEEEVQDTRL
# Assay Name: F508del-CFTR cell surface expression (corrector activity), DiscoveRx ß-galactosidase complementation chemiluminescence assay in recombinant U2OS cell line
# Test Settings: U2OS, in relation to the Emax of the corrector lumacaftor (=100%); U2OS cells, 16h compound incubation; arithmetic mean
Assign Emax to each entry below.
One number for each entry, in %.

- Compound: "CCOCC[C@@H]1C(=O)N[C@H](Cc2ccccc2)COc2ccc3ncc(F)cc3c2C(=O)N[C@H](C(=O)NCCc2cc(OC)no2)CC(=O)N(C)[C@@H](CC(C)C)C(=O)N1C [Example 895]"
  Emax [%]: 409
- Compound: "COc1cccc(CCNC(=O)[C@@H]2CC(=O)N(C)[C@@H](CC(C)C)C(=O)N(C)[C@H](CCc3ccccc3)C(=O)N[C@H](Cc3ccccc3)COc3cc(C)nc(OC)c3C(=O)N2)c1 [Example 875]"
  Emax [%]: 333

Proceeding to the next compound to report its Emax.
Need Emax of COc1noc(CCNC(=O)[C@@H]2CC(=O)N(C)[C@@H](CC(C)C)C(=O)N(C)[C@H](CC(F)(F)F)C(=O)N[C@H](Cc3ccccc3)COc3ccc4cnc(C)cc4c3C(=O)N2)n1 [Example 938] , thanks.
498

###

# Target Entity: human F508del-CFTR (Homo sapiens, UniProt P13569, DEL508-508)
# Assay Name: F508del-CFTR cell surface expression (corrector activity), DiscoveRx ß-galactosidase complementation chemiluminescence assay in recombinant U2OS cell line
# Test Settings: U2OS, in relation to Emax of corrector lumacaftor (=100%); arithmetic mean values
Parameter Measured: Emax (%)
Give bare numbers, in %.

- Compound: "CC[C@@H]1C(=O)N[C@H](Cc2ccccc2)COc2cc(C)nc(OC)c2C(=O)N[C@H](C(=O)NCCc2cccc(OC)c2)CC(=O)N(C)[C@@H](CC(C)C)C(=O)N1C"
  Target Entity: "human F508del-CFTR (Homo sapiens, UniProt P13569, DEL508-508)"
  Unit Name: "%"
  Emax: 345

Give Emax for each of the items listed below.
1. Cc1cc(CCNC(=O)[C@@H]2CC(=O)N(C)[C@@H](CC(C)C)C(=O)N3CCCC[C@@H]3C(=O)N[C@H](Cc3ccccc3)COc3ccnc(C)c3C(=O)N2)on1
2. Cc1cc(CCNC(=O)[C@@H]2CC(=O)N(C)[C@@H](CC(C)C)C(=O)N3CCNC[C@@H]3C(=O)N[C@H](Cc3ccccc3)COc3ccc4ccccc4c3C(=O)N2)on1
3. Cc1cc(CCNC(=O)[C@@H]2CC(=O)N(C)[C@@H](CC(C)C)C(=O)N3CCN(C(C)C)C[C@@H]3C(=O)N[C@H](Cc3ccccc3)COc3ccc4ccccc4c3C(=O)N2)on1
4. Cc1cc(CCNC(=O)[C@@H]2CC(=O)N(C)[C@@H](CC(C)C)C(=O)N3CCN(CC(C)C)C[C@@H]3C(=O)N[C@H](Cc3ccccc3)COc3ccc4nc(C)oc4c3C(=O)N2)on1
5. CC(C)C[C@H]1C(=O)N2CC[C@H](c3ccccc3)C[C@@H]2C(=O)N[C@H](Cc2ccccc2)COc2cnc3ccccc3c2C(=O)N[C@H](C(=O)NCCc2cc(C3CC3)no2)CC(=O)N1C
6. CC(C)C[C@H]1C(=O)N(C)CC(=O)N[C@H](Cc2ccccc2)COc2ccc3c(c2C(=O)N[C@H](C(=O)NCCc2ccc4c(c2)OCO4)CC(=O)N1C)OC(F)(F)O3

1. 199
2. 200
3. 349
4. 266
5. 283
6. 134

###

# Target Entity: human F508del-CFTR (Homo sapiens, UniProt P13569, DEL508-508)
# Assay Name: F508del-CFTR cell surface expression (corrector activity), DiscoveRx ß-galactosidase complementation chemiluminescence assay in recombinant U2OS cell line
# Test Settings: U2OS, in relation to the Emax of the corrector lumacaftor (=100%); U2OS cell line, 16h compound incubation; arithmetic mean values
Parameter Measured: Emax (%)
One number for each entry, in %.

# annotated cases, reported Emax shown
- Compound: "Cc1cccc(CCNC(=O)[C@@H]2CC(=O)N(C)[C@@H](CC(C)C)C(=O)N3CCCC[C@@H]3C(=O)N[C@H](Cc3ccccc3)COc3cnc4ccccc4c3C(=O)N2)c1"
  Unit Name: "%"
  Emax: 206
- Compound: "Cc1cc(CCNC(=O)[C@@H]2CC(=O)N(C)[C@@H](CC(C)C)C(=O)N3CCN(C(C)C)C[C@@H]3C(=O)N[C@H](Cc3ccccc3)COc3cnc4ccccc4c3C(=O)N2)on1"
  Unit Name: "%"
  Emax: 316
- Compound: "COc1cccc(C(F)(F)CNC(=O)[C@@H]2CC(=O)N(C)[C@@H](CC(C)C)C(=O)N(C)C3(CC3)C(=O)N[C@H](Cc3ccccc3)COc3cnc4ccccc4c3C(=O)N2)c1"
  Unit Name: "%"
  Emax: 179
- Compound: "COc1cc2c(cc1OC)C(=O)N[C@H](C(=O)NCCc1ccc3c(c1)OCO3)CC(=O)N(C)[C@@H](CC(C)C)C(=O)N(CC[C@H]1CCCCO1)CC(=O)N[C@H](Cc1ccccc1)CO2 (racemic)"
  Unit Name: "%"
  Emax: 144
- Compound: "Cc1cc(CCNC(=O)[C@@H]2CC(=O)N(C)[C@@H](CC(C)C)C(=O)N(C)C3(CC3)C(=O)N[C@H](Cc3ccccc3)COc3cnc4ccc(F)cc4c3C(=O)N2)on1"
  Unit Name: "%"
  Emax: 339

Give Emax for each of the items listed below.
1. CC(C)C[C@H]1C(=O)N2CCCC[C@@H]2C(=O)N[C@H](Cc2ccccc2)COc2cnc3ccccc3c2C(=O)N[C@H](C(=O)NCCc2cccc(F)c2F)CC(=O)N1C
2. COc1cccc(CCNC(=O)[C@@H]2CC(=O)N(C)[C@@H](CC(C)C)C(=O)N3CCOC[C@@H]3C(=O)N[C@H](Cc3ccccc3)COc3ccc4ccccc4c3C(=O)N2)c1
3. Cc1ccc(CCNC(=O)[C@@H]2CC(=O)N(C)[C@@H](CC(C)C)C(=O)N3CCOC[C@@H]3C(=O)N[C@H](Cc3ccccc3)COc3cnc4ccccc4c3C(=O)N2)cc1C

1. 285
2. 249
3. 202

Give Emax for each of the items listed below.
1. CC(C)C[C@H]1C(=O)N2CCOC[C@@H]2C(=O)N[C@H](Cc2ccccc2)COc2cnc3ccccc3c2C(=O)N[C@H](C(=O)NCCc2cc(C(F)(F)F)no2)CC(=O)N1C
2. COc1ccc(CCNC(=O)[C@@H]2CC(=O)N(C)[C@@H](CC(C)C)C(=O)N3CCCC[C@@H]3C(=O)N[C@H](Cc3ccccc3)COc3ccc4ncn(C)c4c3C(=O)N2)cc1 (racemic)

[229, 142]

###

Assign EC50 to each entry below.
# Target Entity: human F508del-CFTR (Homo sapiens, UniProt P13569, DEL508-508)
# Assay Name: F508del-CFTR cell surface expression (corrector activity), DiscoveRx ß-galactosidase complementation chemiluminescence assay in recombinant U2OS cell line;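 further: U2OS cells co-expressing ProLink-tagged F508del-CFTR and a membrane-anchored enzyme acceptor, where more surface CFTR restores β-galactosidase activity measured by chemiluminescence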
# Test Settings: EC50, F508del-CFTR cell surface expression, U2OS cell line, 16h compound incubation; geomean values
Numbers only, in µM.

# annotated cases, reported EC50 shown
- Molecule: "COc1cccc(CCNC(=O)[C@@H]2CC(=O)N(C)[C@@H](CC3CCCCC3)C(=O)N(C[C@@H]3CCCCO3)CC(=O)N[C@H](Cc3ccccc3)COc3ccc4ccccc4c3C(=O)N2)c1 (racemic) [Example 294]"
  Target Entity: "human F508del-CFTR (Homo sapiens, UniProt P13569, DEL508-508)"
  Observed: 0.265
- Molecule: "CC(C)C[C@H]1C(=O)N2CCN(C3CC3)C[C@@H]2C(=O)N[C@H](Cc2ccccc2)COc2cnc3ccccc3c2C(=O)N[C@H](C(=O)NCCc2ccc3c(c2)OCO3)CC(=O)N1C [Example 393]"
  Target Entity: "human F508del-CFTR (Homo sapiens, UniProt P13569, DEL508-508)"
  Observed: 0.118
- Molecule: "COc1cc2c(cc1OC)C(=O)N[C@H](C(=O)NCCc1ccc3c(c1)OCO3)CC(=O)N(C)[C@@H](CC(C)C)C(=O)N(C[C@@H]1CCCCO1)CC(=O)N[C@H](Cc1ccccc1)CO2 [Example 160]"
  Target Entity: "human F508del-CFTR (Homo sapiens, UniProt P13569, DEL508-508)"
  Observed: 0.224
- Molecule: "CCOc1cccc(CCNC(=O)[C@@H]2CC(=O)N(C)[C@@H](CC(C)C)C(=O)N(CCC3CCCCC3)CC(=O)N[C@H](Cc3ccccc3)COc3cccc(OC)c3C(=O)N2)c1 [Example 201]"
  Target Entity: "human F508del-CFTR (Homo sapiens, UniProt P13569, DEL508-508)"
  Observed: 0.222

Need EC50 of CC(C)C[C@H]1C(=O)N(C)C2(CC2)C(=O)N[C@H](Cc2ccccc2)COc2cnc3ccc(F)cc3c2C(=O)N[C@H](C(=O)NCCn2cc(Br)cn2)CC(=O)N1C [Example 173] , thanks.
0.455
